- targetOrSystem: Sodium-dependent dopamine transporter (Rattus norvegicus, UniProt P23977)
- Sequence (P23977 whole entry): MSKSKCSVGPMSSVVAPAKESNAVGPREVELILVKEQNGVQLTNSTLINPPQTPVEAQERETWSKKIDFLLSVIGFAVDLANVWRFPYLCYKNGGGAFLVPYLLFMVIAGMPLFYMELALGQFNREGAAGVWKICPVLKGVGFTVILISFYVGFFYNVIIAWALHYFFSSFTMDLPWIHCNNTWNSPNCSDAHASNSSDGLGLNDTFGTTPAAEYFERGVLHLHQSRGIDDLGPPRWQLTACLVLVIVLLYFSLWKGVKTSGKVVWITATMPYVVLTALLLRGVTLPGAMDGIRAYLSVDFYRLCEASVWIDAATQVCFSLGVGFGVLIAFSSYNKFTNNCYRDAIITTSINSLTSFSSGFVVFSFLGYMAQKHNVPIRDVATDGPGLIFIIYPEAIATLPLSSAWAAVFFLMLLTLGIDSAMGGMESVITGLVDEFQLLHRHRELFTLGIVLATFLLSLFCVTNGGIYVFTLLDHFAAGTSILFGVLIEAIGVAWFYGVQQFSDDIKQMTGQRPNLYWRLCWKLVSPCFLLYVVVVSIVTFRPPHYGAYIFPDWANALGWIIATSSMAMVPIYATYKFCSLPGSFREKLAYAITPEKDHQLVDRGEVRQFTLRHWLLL
- assayRemarks: Inhibition of the uptake of tritiated dopamine (DA) in rat synaptosomes
Entries whose Ki is below 50 nM take y; entries at or above 50 nM take n.

# example entries with known answers
COc1ccc([C@@H]2CN3CCCC3c3cc(OC)c(OC)cc32)cc1OC (stereo partly drawn); n
Br.COc1cc2c(cc1OC)[C@@H]1CCCN1C[C@H]2c1ccccc1; n
FC(F)(F)c1ccc([C@@H]2CN3CCC[C@@H]3c3ccccc32)cc1; n
COc1ccc(NC(=O)Nc2ccc([C@@H]3CN4CCC[C@H]4c4ccccc43)cc2)cc1; y

# input Check if Ki falls below 50 nM for CCN1Cc2ccccc2C(c2ccccc2)C1 (stereo not drawn) .
# output y

# input Please determine if Clc1ccc([C@@H]2CN3CCC[C@@H]3c3cc(Cl)ccc32)cc1 is below 50 nM in terms of Ki.
# output y

# input Field: below-cutoff. Rule: recorded Ki strictly less than 50 nM. Subject: FC(F)(F)c1cccc([C@@H]2CN3CCC[C@@H]3c3ccccc32)c1 (stereo in doubt; 37b)
# output n

# input # TODO verify Ki < 50 nM strictly for this compound: Br.O[C@@]1(c2ccccc2)CN2CCC[C@H]2c2ccccc21
# output n

# input Record Br.Oc1ccc([C@@H]2CN3CCC[C@@H]3c3ccccc32)cc1O : is its Ki strictly below 50 nM?
# output y

# input Please state whether Ki is below 50 nM for Br.Clc1ccccc1[C@@H]1CN2CCC[C@@H]2c2ccccc21 (stereo in doubt; (-)-24b)
# output n

# input API: query returns whether the compound falls strictly under 50 nM in Ki. Query: Br.Oc1cc2c(cc1O)[C@H]1CCCN1C[C@H]2c1ccccc1
# output y

# input Just wondering, is Ki of c1ccc([C@@H]2CN3CCC[C@@H]3c3ccccc32)cc1 (stereo in doubt; (-)-7b) below 50 nM?
# output n

# input Does Br.Nc1ccc([C@@H]2CN3CCC[C@@H]3c3ccccc32)cc1 have Ki strictly under 50 nM?
# output y

----------
Can you tell me ED50 for the items I'm about to list?
- Species: Mus musculus
- assayRemarks: Antagonism of tetrabenazine (TBZ)-induced depression in mice measured for ptosis
- Type: functional
- measurementParameters: Mus musculus; read-out: ED50

// solved cases for ED50 follow
Br.COc1cccc([C@@H]2CN3CCC[C@H]3c3ccccc32)c1; > 60 mg/kg
Clc1ccc([C@@H]2CN3CCC[C@H]3c3cc(Cl)ccc32)cc1; ~37 mg/kg

The compound identified as c1ccc([C@H]2CN3CCCC[C@H]3c3ccccc32)cc1 registered its ED50 at > 30 mg/kg

----------
I'd appreciate it if you could supply pKi values for the items below.
- targetOrSystem: Norepinephrine transporter (Rattus norvegicus)
- Sequence (Q9WTR4 whole entry): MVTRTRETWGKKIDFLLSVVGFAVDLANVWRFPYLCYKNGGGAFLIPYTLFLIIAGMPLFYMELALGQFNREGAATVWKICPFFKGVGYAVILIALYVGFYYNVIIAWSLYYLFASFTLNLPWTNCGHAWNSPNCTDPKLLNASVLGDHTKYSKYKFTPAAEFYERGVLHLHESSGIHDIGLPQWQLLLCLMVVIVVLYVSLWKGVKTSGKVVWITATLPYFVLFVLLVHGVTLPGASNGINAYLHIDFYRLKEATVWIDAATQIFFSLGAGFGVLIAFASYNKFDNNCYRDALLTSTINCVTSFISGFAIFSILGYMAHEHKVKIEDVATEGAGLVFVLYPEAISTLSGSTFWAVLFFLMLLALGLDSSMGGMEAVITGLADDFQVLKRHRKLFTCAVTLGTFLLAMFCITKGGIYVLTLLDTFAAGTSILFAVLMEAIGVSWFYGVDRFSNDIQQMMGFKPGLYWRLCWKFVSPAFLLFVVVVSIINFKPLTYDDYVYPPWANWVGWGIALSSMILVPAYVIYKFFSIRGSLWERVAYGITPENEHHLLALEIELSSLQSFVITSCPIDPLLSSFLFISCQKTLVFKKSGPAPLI
- assayRemarks: Inhibition of uptake of tritiated norepinephrine (NE) in rat synaptosomes
Answers are plain numbers, as −log10 of the molar value.

Worked cases, answers included:
COc1cc2c(cc1OC)[C@H]1CCCN1C[C@H]2c1ccccc1; 7.27
Br.Oc1cc2c(cc1O)[C@H]1CCCN1C[C@H]2c1ccccc1; 7.98
Br.Clc1cccc([C@@H]2CN3CCC[C@@H]3c3ccccc32)c1; 9.35
FC(F)(F)c1cccc([C@@H]2CN3CCC[C@@H]3c3ccccc32)c1 (stereo in doubt; (+)-37b); 8.82

Provide pKi for all items below, preserving their order.
1. NC(=O)c1ccc([C@@H]2CN3CCC[C@@H]3c3ccccc32)cc1
2. CCn1cc(C(=O)O)c(=O)c2ccc(Cc3ccccc3)nc21
3. CCCCc1ccc([C@@H]2CN3CCC[C@@H]3c3ccccc32)cc1
4. Br.Clc1ccc2c(c1)[C@H]1CCCN1C[C@H]2c1ccccc1
5. O=C(Nc1ccccc1)Nc1ccc([C@@H]2CN3CCC[C@@H]3c3ccccc32)cc1

# output
1. 7.04
2. 7.39
3. 7.52
4. 9.21
5. 6.93

Could you tell me pKi for each of these compounds? They are listed below.
1. C[C@@]12CCCN1C[C@H](c1ccc(Cl)cc1)c1ccccc12
2. Clc1ccc([C@@H]2CN3CCC[C@H]3c3ccccc32)cc1Cl
3. Fc1cccc(Cl)c1[C@@H]1CN2CCC[C@@H]2c2ccccc21
4. Clc1cccc2c1[C@H](c1ccccc1)CN1CCC[C@H]21
5. Fc1ccc([C@@H]2CN3CCC[C@@H]3c3ccccc32)cc1
6. FC(F)(F)c1cccc([C@@H]2CN3CCC[C@@H]3c3ccccc32)c1 (stereo in doubt; 37b)
7. O=C(Nc1ccccc1)Nc1ccc([C@@H]2CN3CCC[C@H]3c3ccccc32)cc1

# output
8.42
7.80
7.94
7.94
8.85
9.02
7.38

Dear colleague, could you send me pKi for each of the items below? Thanks.
1. Br.Oc1cccc([C@@H]2CN3CCC[C@H]3c3ccccc32)c1
2. Cc1ccccc1[C@@H]1CN2CCC[C@@H]2c2ccccc21
3. C[C@@]12CCCCN1C[C@H](c1ccccc1)c1ccccc12
4. Clc1ccc([C@@H]2CN3CCC[C@@H]3c3cc(Cl)ccc32)cc1
5. Clc1ccc([C@@H]2CN3CCC[C@@H]3c3ccccc32)cc1Cl
6. Br.Nc1ccc([C@@H]2CN3CCC[C@@H]3c3ccccc32)cc1

# output
[7.82, 8.25, 7.98, 8.49, 9.17, 9.70]

Parameters: items (list). Returns: pKi for each item.
1. Br.COc1ccc2c(c1)[C@@H]1CCCN1C[C@H]2c1ccccc1
2. Br.COc1cccc([C@@H]2CN3CCC[C@H]3c3ccccc32)c1
3. Br.c1ccc([C@H]2CN3CCC[C@H]3c3ccsc32)cc1
4. Br.Oc1cccc([C@@H]2CN3CCC[C@@H]3c3ccccc32)c1
5. FC(F)(F)c1ccc2c(c1)[C@H]1CCCN1C[C@H]2c1ccccc1
6. O[C@]1(c2ccccc2)CN2CCC[C@H]2c2ccccc21
7. FC(F)(F)c1ccc([C@@H]2CN3CCC[C@@H]3c3ccccc32)cc1
8. Br.c1csc([C@H]2CN3CCC[C@H]3c3ccsc32)c1

# output
7.68
7.79
8.85
9.07
8.51
8.09
7.97
7.84
